target: T1, recombinant human PD-L1-His (human, UniProt Q9NZQ7 19-238); test: BLI (Octet RED96), antibody captured on AHC biosensor, PD-L1-His in solution, 1:1 model;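 also: rates obtained by 1:1 Langmuir fitting of the binding response, using a 2.5 min association phase then a 5 min dissociation phase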
T1 construct: Analyte of the BLI assay; also called hPD-L1
T1 sequence (Q9NZQ7 19-238): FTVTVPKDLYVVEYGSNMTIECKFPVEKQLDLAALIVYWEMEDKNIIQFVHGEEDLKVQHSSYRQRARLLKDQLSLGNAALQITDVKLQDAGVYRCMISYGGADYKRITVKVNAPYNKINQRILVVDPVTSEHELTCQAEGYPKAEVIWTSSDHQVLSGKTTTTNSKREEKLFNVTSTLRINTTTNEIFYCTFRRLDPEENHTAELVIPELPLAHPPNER
Property: Kd (nM)
Expressed in nM, but write only the number.

These recorded examples may help you get a feel for the data.
[[record]]
binder = "PHS102.HSYPP411C (antibody, human IgG1, kappa, N297A, V domains shown, full-length human IgG1-N297A / kappa) VH: EVQLVESGGGLVQPGGSLRLSCAASGFTIDNTYIHWVRQAPGKGLEWVARIDPANGKTTYADSVKGRFTISADTSKNTANLQMNSLRAEDTAVYYCARSFSWWADYWGQGTLVTVSS VL: DIQMTQSPSSLSASVGDRVTITCRAGQDVYKAVAWYQQKPGKAPKLLIYWSTNLYSGVPSRFSGSGSGTDFTLTISSLQPEDFATYYCQQFNLQPTTFGQGTKVEIKR"
value_reported = 2.03

[[record]]
binder = "PHS102.YT10H (antibody, human IgG1, kappa, N297A, V domains shown, full-length human IgG1-N297A / kappa) VH: EVQLVESGGGLVQPGGSLRLSCAASGFTISDAYIHWVRQAPGKGLEWVARIEPLSGRTDYADSVKGRFTISADTSKNTAYLQMNSLRAEDTAVYYCARAFSWFMDYWGQGTLVTVSS VL: DIQMTQSPSSLSASVGDRVTITCRAGQDVYKAVAWYQQKPGKAPKLLIYWSTNLYSGVPSRFSGSGSGTDFTLMISSLQPEDFATYYCQQHDKTPTTFGQGTKVEIKR"
value_reported = 1.92


Bench note: what Kd did PHS102.YP11F (antibody, human IgG1, kappa, N297A, V domains shown, full-length human IgG1-N297A / kappa) VH: EVQLVESGGGLVQPGGSLRLSCAASGFTIDNTYIHWVRQAPGKGLEWVARIDPVSGRTRYADSVKGRFTISADTSKNTADLQMNSLRAEDTAVYYCARAFSWFPDYWGQGTLVTVSS VL: DIQMTQSPSSLSASVGDRVTITCRAGQDVYKAVAWYQQKPGKAPKLLIYWSTNLYSGVPSRFSGSGSGTDFTLTISSLQPEDFATYYCQQFGATPITFGQGTKVEIKR show?
1.84
